Molecular target: chymotrypsin-like (CT-L) proteasome activity (Homo sapiens, UniProt P20618+P28074)
Sequence (P28074 60-263): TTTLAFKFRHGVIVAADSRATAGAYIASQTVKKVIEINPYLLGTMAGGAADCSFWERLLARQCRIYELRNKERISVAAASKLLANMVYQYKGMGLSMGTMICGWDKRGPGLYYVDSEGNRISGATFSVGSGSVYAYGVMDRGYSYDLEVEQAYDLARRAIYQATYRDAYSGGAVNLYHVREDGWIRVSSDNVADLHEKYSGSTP
Sequence (P20618 29-241): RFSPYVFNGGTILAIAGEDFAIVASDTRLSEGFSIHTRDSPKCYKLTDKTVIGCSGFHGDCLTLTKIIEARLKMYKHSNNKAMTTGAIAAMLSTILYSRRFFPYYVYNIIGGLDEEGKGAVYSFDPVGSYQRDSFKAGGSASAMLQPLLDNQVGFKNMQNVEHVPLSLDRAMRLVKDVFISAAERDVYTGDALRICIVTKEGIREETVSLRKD
Assay: Proteasome enzymatic activity (tumor cell lysates), CT-L, OCI-AML-2
Type: biochemical
Conditions: OCI-AML-2, mean ± standard deviation
Recorded IC50, one value per entry.
Express your answer in nM, writing the number without its unit.

CC(C)C[C@H](NC(=O)[C@H](COC(F)F)NC(=O)[C@H](COC(F)F)NC(=O)[C@H](COC(F)F)NC(=O)CN1CCOCC1)C(=O)[C@@]1(C)CO1 : 58.3
CC(C)C[C@H](NC(=O)[C@H](COC(F)F)NC(=O)[C@H](COC(F)F)NC(=O)[C@H](CCc1ccccc1)NC(=O)CN1CCOCC1)C(=O)[C@@]1(C)CO1 : 24.7

--- query ---
Query: Would you kindly share the measured IC50 for CC(C)C[C@H](NC(=O)[C@H](COC(F)F)NC(=O)CN1CCOCC1)C(=O)N[C@@H](Cc1ccccc1)C(=O)N[C@@H](CC(C)C)C(=O)[C@@]1(C)CO1 ?
Reply: 41.2
